# measured.target: human GluN1/GluN2B NMDA receptors (Homo sapiens, UniProt Q05586+Q13224)
# Sequence (Q13224 27-1484, other chains not shown): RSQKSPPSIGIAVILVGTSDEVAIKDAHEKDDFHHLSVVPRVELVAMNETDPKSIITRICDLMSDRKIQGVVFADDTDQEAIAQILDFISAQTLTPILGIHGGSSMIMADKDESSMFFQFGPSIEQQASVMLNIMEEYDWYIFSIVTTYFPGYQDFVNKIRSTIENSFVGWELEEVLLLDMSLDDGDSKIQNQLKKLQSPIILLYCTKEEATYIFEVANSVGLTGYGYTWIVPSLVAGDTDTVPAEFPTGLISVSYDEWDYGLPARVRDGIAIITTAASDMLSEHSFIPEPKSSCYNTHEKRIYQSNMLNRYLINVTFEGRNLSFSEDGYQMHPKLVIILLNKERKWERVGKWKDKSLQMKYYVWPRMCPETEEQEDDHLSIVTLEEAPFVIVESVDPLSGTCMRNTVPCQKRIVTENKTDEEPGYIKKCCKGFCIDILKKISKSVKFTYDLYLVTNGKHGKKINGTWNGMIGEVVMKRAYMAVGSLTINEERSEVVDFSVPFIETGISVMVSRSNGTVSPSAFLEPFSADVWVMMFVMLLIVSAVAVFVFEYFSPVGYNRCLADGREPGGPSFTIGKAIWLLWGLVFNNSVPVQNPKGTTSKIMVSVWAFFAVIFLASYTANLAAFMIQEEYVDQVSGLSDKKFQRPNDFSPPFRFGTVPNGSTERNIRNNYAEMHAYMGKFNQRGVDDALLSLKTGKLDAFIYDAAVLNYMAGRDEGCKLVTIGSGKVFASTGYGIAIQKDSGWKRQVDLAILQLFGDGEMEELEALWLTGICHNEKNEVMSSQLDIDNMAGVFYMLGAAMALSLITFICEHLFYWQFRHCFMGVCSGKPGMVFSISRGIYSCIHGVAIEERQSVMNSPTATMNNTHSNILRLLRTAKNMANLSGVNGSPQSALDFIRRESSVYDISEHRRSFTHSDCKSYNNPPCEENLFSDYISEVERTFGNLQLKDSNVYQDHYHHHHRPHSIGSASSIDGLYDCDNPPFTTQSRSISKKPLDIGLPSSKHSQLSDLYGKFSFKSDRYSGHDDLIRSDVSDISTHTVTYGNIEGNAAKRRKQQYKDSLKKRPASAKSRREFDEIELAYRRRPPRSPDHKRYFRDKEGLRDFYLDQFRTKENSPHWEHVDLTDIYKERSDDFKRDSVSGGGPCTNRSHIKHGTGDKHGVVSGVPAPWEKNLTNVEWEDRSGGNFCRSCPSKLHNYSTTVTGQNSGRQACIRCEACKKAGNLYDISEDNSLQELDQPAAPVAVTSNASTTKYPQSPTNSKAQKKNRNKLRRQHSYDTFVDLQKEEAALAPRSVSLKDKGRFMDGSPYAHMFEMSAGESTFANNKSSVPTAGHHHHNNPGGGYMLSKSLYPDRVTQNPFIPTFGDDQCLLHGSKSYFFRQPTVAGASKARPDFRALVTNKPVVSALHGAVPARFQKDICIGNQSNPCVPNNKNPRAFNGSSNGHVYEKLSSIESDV
# protocol.summary: Cell-based calcium flux (FLIPR) assay on cloned human NR1/NR2B ion channels expressed in mammalian cells
# settings: standard assay; glutamate at ~EC80; FLIPR calcium flux
attribute.measured: IC50 (µM)
One number for each entry, in µM.

Look up IC50 for the entries below, preserving their order.
1. Fc1ccc(-n2cc(COc3ncc(F)c(NCC(F)F)n3)nn2)cc1OC(F)F [Example 517]
2. Cc1cnc(OCc2cn(-c3ccc(F)c(C)c3F)nn2)nc1N [Example 651]
3. Cc1cnc(OCc2cn(-c3ccc(F)c(C(C)(F)F)c3)nn2)nc1N [Example 576]

**Result**
1: 0.912; 2: 0.262; 3: 0.017

For each of the compounds below, note its IC50.
1. Fc1cnc(OCc2cn(-c3cccc(Cl)c3F)nn2)nc1 [Example 614]
2. Cc1cnc(OCc2nnn(-c3ccc(F)c(C(C)(F)F)c3)c2C)nc1C [Example 595]

**Result**
[4.03, 0.706]

* * *

# measured.target: human GluN1/GluN2B NMDA receptors (Homo sapiens, UniProt Q05586+Q13224)
# protocol.summary: Cell-based calcium flux (FLIPR) assay on cloned human NR1/NR2B ion channels expressed in mammalian cells
# settings: standard assay; human GluN1/GluN2B, calcium flux (FLIPR), glutamate ~EC80
# Description: Effects of Test Articles on Cloned Human NR1/NR2B Ion Channels Expressed in Mammalian Cells NMDA receptors are ion channels that are highly permeable to Ca^2+ ions, rendering it possible to monitor NMDA receptor function using cell-based calcium flux assay. […] The time course of the changes in intracellular calcium is measured using a fluorescent dye and a FLIPR (Fluorometric Imaging Plate Reader) device. […]
attribute.measured: IC50 (µM)
One number for each entry, in µM.

Worked examples, 4 molecules total:
molecule=CC(=O)c1cnc(OCc2cn(-c3ccc(F)c(C(F)F)c3)nn2)nc1 scale_unit=µM reported_result=0.005
molecule=Cc1cnc(OCc2cn(-c3ccc(Cl)c(OC(F)F)c3)nn2)cn1 scale_unit=µM reported_result=0.159
molecule=FC(F)c1cccc(-n2cc(COc3ncc(C4CC4)cn3)nn2)c1 scale_unit=µM reported_result=0.011
molecule=Fc1ccc(-n2cc(COc3ncc(Cl)cn3)nn2)cc1C(F)(F)F scale_unit=µM reported_result=0.016

Batch of 5 molecules: report IC50 for each.
1. Cc1ccnc(OCc2cn(-c3ccc(F)c(OC(F)F)c3)nn2)n1
2. FC(F)Oc1cc(-n2cc(COc3ncc(N4CCC4)cn3)nn2)ccc1Cl
3. CC(Oc1ncc(Cl)cn1)c1cn(-c2ccc(Cl)c(OC(F)F)c2)nn1 (racemic)
4. Fc1ccc(-n2cc(COc3nccc(N4CCC(F)(F)C4)n3)nn2)cc1OC(F)F
5. Cc1cnc(OCc2cn(-c3cccc(C(F)F)c3)nn2)nc1N

**Result**
1. 0.007
2. 0.022
3. 0.032
4. 0.144
5. 0.055

* * *

# measured.target: human GluN1/GluN2B NMDA receptors (Homo sapiens, UniProt Q05586+Q13224)
# protocol.summary: Cell-based calcium flux (FLIPR) assay on cloned human NR1/NR2B ion channels expressed in mammalian cells
# settings: standard assay; glutamate at ~EC80; FLIPR calcium flux
attribute.measured: IC50 (µM)
One number for each entry, in µM.

Solved entries (count: 5):
molecule="Fc1cccc(-n2cc(COc3ncccn3)nn2)c1F [Example 607]" reported_result=3.43
molecule="Fc1ccc(-n2cc(COc3ncc(N4CCC(F)(F)C4)cn3)nn2)cc1C(F)F [Example 422]" reported_result=0.068
molecule="Cc1ccnc(OCc2cn(-c3ccc(C)c(OC(F)F)c3)nn2)n1 [Example 523]" reported_result=0.114
molecule="Fc1ccc(-n2cc(COc3cnc(-c4cccs4)cn3)nn2)cc1OC(F)F [Example 397]" reported_result=10.7
molecule="Cc1ccnc(OCc2cn(-c3ccc(F)c(C(C)(F)F)c3)nn2)c1 [Example 557]" reported_result=0.246

Can you give me IC50 for all of these, one by one?
1. Cc1nc(OCc2cn(-c3ccc(F)c(OC(F)F)c3)nn2)ncc1Cl [Example 513]
2. CC(F)(F)c1cc(-n2cc(COc3ncc(C(F)F)cn3)nn2)ccc1Cl [Example 535]
3. Cc1cnc(OCc2cn(-c3ccc(F)c(OC(F)F)c3)nn2)cn1 [Example 396]

**Result**
1: 0.004; 2: 0.009; 3: 0.647

Numbers sourced from patent US10233173B2.
